testDetails: M. tuberculosis growth inhibition, HTS (AID 449762);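 note: bacterial growth assessed after seven days of incubation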
conditionInfo: M. tuberculosis H37Rv growth inhibition, 7H9 media; at 25 µM; stronger effect = higher value
The whole screen tested about 330,000 compounds, of which about 1,900 (0.58%) were called active. Inconclusive results (about 4%) are left out. Not all results are given here. Potency and affinity values are given separately.
reportedEndpoint: inhibition (%)
Answers are plain numbers, in %.

CC(C)(C)NC(=O)COC(=O)c1cc(Cl)ccc1[N+](=O)[O-]: -0.3
COc1ccccc1C(=O)COC(=O)c1cc([N+](=O)[O-])ccc1N1CCOCC1: 32.4
Cc1ccc(C2Oc3ccccc3C3=C2C(c2cccs2)n2ncnc2N3)cc1 (stereo unspecified): 55.2
Fc1ccc(C2C3=C(Nc4ncnn42)c2ccccc2OC3c2ccncc2)cc1 (stereo unspecified): -5.07
Cc1cc(C)n(C(=O)c2ccc([N+](=O)[O-])cc2N)n1: -4

Hi there! I need inhibition for each item below, if you can.
1. O=C(NNC(=O)C1CCN(S(=O)(=O)c2ccccc2C(F)(F)F)CC1)c1ccccc1O
2. C=C(C)C1Cc2c(C)nn(-c3cccc4ccccc34)c2C1 (stereo unspecified)
3. Cc1cc(C)nc(NS(=O)(=O)c2ccc(NS(=O)(=O)c3ccccc3)cc2)n1

1. 6.28
2. 40.9
3. -6.64

Hi there! I need inhibition for each item below, if you can.
1. CCOC(=O)/C(=N/Nc1ccccc1)N1CCCc2ccccc21
2. COc1cc2cc(C(c3nnnn3C3CCCC3)N3CCc4ccccc43)c(=O)[nH]c2cc1OC (stereo unspecified)
3. Cc1cccc(OC(C)C(=O)OCC(=O)N2CCN(c3ccccc3)CC2)c1 (stereo unspecified)
4. C=CCNC(=O)C1CC(=O)N(c2ccc(OCC(=O)Nc3c(C)cccc3C)cc2)C1 (stereo unspecified)
5. O=C(c1ccc(Cl)cc1)C1CCN(C(=O)c2ccc(F)cc2)CC1
6. C[C@H](NC(=O)NCc1ccc(F)cc1)C(=O)O

1. 0.18
2. 0.64
3. 69.9
4. 1.18
5. 4.03
6. -0.83

Hi there! I need inhibition for each item below, if you can.
1. COc1ccc(OC)c(S(=O)(=O)N2CCN(C34CC5CC(CC(C5)C3)C4)CC2)c1
2. COc1cccc(/C(C)=N/Nc2ccc(S(=O)(=O)N3CCCCC3)cn2)c1
3. CN1CCC(N(C)C(=O)c2ccc(Cl)c(S(=O)(=O)Nc3cc(Cl)ccc3Cl)c2)CC1
4. Cc1cc(C)nc(SCC(=O)O)n1
5. C/C(=N\Nc1ccc(S(=O)(=O)N2CCCCC2)cn1)c1ccc(O)cc1
6. COc1cc(F)ccc1S(=O)(=O)N1CCN(C23CC4CC(CC(C4)C2)C3)CC1
7. Cc1cccc(NC(=O)C2CCCN(S(=O)(=O)c3c(C)nn(C)c3C)C2)c1 (stereo unspecified)

[2.72, -2.89, -3.22, 0.26, -0.43, 9.71, -8.6]

----------
testDetails: M. tuberculosis growth inhibition, HTS (AID 449762);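 note: bacterial growth assessed after seven days of incubation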
conditionInfo: M. tuberculosis H37Rv growth inhibition, 7H9 media; at 25 µM; stronger effect = higher value
Out of some 330,000 compounds screened, about 1,900 (0.58%) were called active. Not shown: some 4% with an inconclusive outcome. These entries were drawn from the full list. Measured potencies and affinities stand elsewhere.
Exercise: state measured inhibition for each of the molecules provided.
One number for each entry, in %.

Field: example entries. Status: answers known.
CCOc1ccc(N2C(=O)C3CC(C)=C(C)CC3C2=O)c([N+](=O)[O-])c1 (stereo not drawn): -11.3
Cc1cc(Nc2ccccc2)c2c([N+](=O)[O-])cc(C)c(C)c2n1: 6.4
C/C(=N/Nc1ccnc2cc(Cl)ccc12)c1ccc(N)cc1: -2.9
COc1cc(/C=C2\SC(c3ccc(C)cc3)=NC2=O)cc(OC)c1OC: -5.86
CC1=C(CC/C(C)=N/NC(N)=S)C(C)(C)CCC1: 12
Cc1ccc(C)c(/C=N/NC(=S)NC(C)C)c1: -0.52
COc1ccc(-c2cc(C)no2)cc1S(=O)(=O)NCCCN1CCN(c2ccccc2)CC1: 1.94
CCc1ccccc1N(CC(=O)NCC1CCCO1)C(=O)CCC(=O)Nc1cc(C)on1 (stereo not drawn): -3.22
CN1CCN(CC(=O)Nc2c(C(=O)c3ccccc3)oc3ccccc23)CC1: 3.75
COc1cc(/C=C2\N=C(C)OC2=O)cc(OC)c1OC: 6.29

Hi there! I need inhibition for each item below, if you can.
1. COC(=O)N/N=C/c1cc(Br)ccc1O
2. CCOCCCNC(=S)NCCCNc1nc2cc3c(cc2cc1C#N)OCO3
3. CC/C(=N\Nc1ccnc2cc(Cl)ccc12)c1ccc(O)cc1
4. COC(OC)c1ccnc(-c2ccc(OC(C)=O)cc2)n1
5. COc1ccc(C2CC(c3c(Cl)cccc3Cl)n3nc(N)nc3N2)cc1 (stereo not drawn)
6. COc1cccc(NC(=O)[C@@H]2CCCN2C(=O)C2CCN(S(=O)(=O)c3ccc(C)cc3)CC2)c1
7. S=C(NCCCN1CCOCC1)N(Cc1ccccc1)Cc1ccccc1
8. CCOC(=O)c1[nH]c(C)c(C(=O)N2CCN(c3ccc(OC)cc3)CC2)c1C

1: -4.56; 2: -2.17; 3: 9.75; 4: 0.19; 5: -4.95; 6: -6.02; 7: -1.92; 8: -0.98

Hi there! I need inhibition for each item below, if you can.
1. CCOC(=O)C1CCCCN1S(=O)(=O)c1cc2c(cc1C)NC(=O)CO2 (stereo not drawn)
2. O=C(COC(=O)c1ccccn1)Nc1ccc2c(c1)OCCO2
3. CCOC(=O)c1c(C)[nH]c(C(=O)N2CCN(c3ccc(OC)cc3)CC2)c1C
4. COc1ccccc1Nc1cc(C)nc2c(C)ccc([N+](=O)[O-])c12
5. NC1=NC2(CCCC2)n2c(nc3ccccc32)N1

-3.9
-1.75
53.5
-0.28
1.5
